test-details: Pharmacokinetic experiment in rats
Format: in vivo, SD rats
study-conditions: male, SD, rat, plasma; rats, oral 20 mg/kg vs intravenous 4 mg/kg; read-out: Bioavailability (P %)
Assign class by bioavailability: not lower than 30% means Yes; lower than 30% means No.

{"columns": ["compound", "group"],
 "data": [
  ["CCN(c1cc(-c2ccc3c(c2)NC(=O)C32CCOCC2)cc(C(=O)NCc2c(OC)cc(C)[nH]c2=O)c1C)C1CCNCC1", "Yes"],
  ["CCN(c1cc(-c2ccc3c(c2)NCC32CCOCC2)cc(C(=O)NCc2c(OC)cc(C)[nH]c2=O)c1C)C1CCNCC1", "Yes"],
  ["CCN(c1cc(-c2ccc3c(c2)N(C(C)C(C)C)CC32CCOCC2)c(Cl)c(C(=O)NCc2c(C)cc(C)[nH]c2=O)c1C)C1CCOCC1 (stereo not drawn)", "No"],
  ["CCN(c1cc(-c2cc3c(cc2F)CCC32CCOCC2)cc(C(=O)NCc2c(OC)cc(C)[nH]c2=O)c1C)C1CCOCC1", "No"],
  ["CCN(c1cc(-c2ccc3c(c2)N(CC(F)(F)F)C(=O)C32CCOCC2)cc(C(=O)NCc2c(C)cc(C)[nH]c2=O)c1C)C1CCOCC1", "No"],
  ["CCN(c1cc(-c2ccc3c(c2)NCC32CCOCC2)cc(C(=O)NCc2c(C)cc(C)[nH]c2=O)c1C)C1CCNCC1", "No"]
]}
